Molecular target: Follistatin-related protein 3 (Homo sapiens)
Assay: FSTL3 binders on small-molecule microarrays, primary screen, biochemical, small-molecule microarray, 635 nm fluorescence (AID 1105);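 note: score merges emission near 667 nm and signal to noise per printed spot across three slides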
Conditions: FSTL3 binding, higher = more signal
Class boundaries, taken from values of composite z-score, are as follows: low range = under 0.5, mid range = from 0.5 up to 0.9, high range = 0.9 and over

CCOC(=O)C1=CC[C@H]2C(=O)N(CC)C(=O)[C@@H]12: high range

GET /class?item= CCN1C(=O)[C@H]2[C@H]3[C@H](O)[C@H](O)CC(=NO[C@@H]4O[C@H](CO)[C@@H](O)[C@H](O)[C@H]4O)[C@@H]3CC[C@H]2C1=O
low range

Next molecule: CC(C)=CCCC(C)=CCON=C1[C@H]2CCn3c(=O)n(Cc4cc5c(cc4Cl)OCO5)c(=O)n3[C@H]2[C@H](O)[C@@H]2O[C@H]12
mid range

Next molecule: CO[C@@H]1COC(=O)CCC[C@@H](C)[C@H](OC)COC(=O)CCC[C@H]1C
mid range

Next molecule: CC(C)(C)N1CC=CC23O[C@@H]4C=CCCOC(=O)C4[C@H]2C(=O)N(CCCCCO)[C@@H]3C1=O (stereo not given in full)
low range

Next molecule: COC(=O)[C@H](C)NC(=O)CCC1CC(OC(=O)NCCc2ccc(F)cc2)CC2(CCCC(COC(=O)NCCc3ccc(Cl)cc3)O2)O1 (stereo not given in full)
high range

Next molecule: CCOC(=O)[C@H](Cc1ccccc1)NC(=O)CCC1CC(OC(=O)NCc2ccc3c(c2)OCO3)CC2(CCCC(COC(=O)NCC(c3ccccc3)c3ccccc3)O2)O1 (stereo not given in full)
high range

Next molecule: COc1ccc(O[C@H]2C=C[C@@H](c3ccccc3)O[C@@H]2COC(=O)CCC(C)=NO[C@H](C)c2cn([C@@H]3COC[C@H]3O)nn2)cc1
mid range

Next molecule: CO[C@@H]1COC(=O)CC=C[C@@H](C)[C@@H]2C=C[C@H](O)[C@@H](COC(=O)[C@H](C)NC(=O)CC=C[C@H]1C)O2
high range

Next molecule: Cc1cc2c(c(=O)o1)[C@H](O)[C@H]1O[C@H]1C2=O
low range

Next molecule: O=C1C[C@@H](O)[C@@H](O)[C@@H]2[C@@H]3C(=O)N(Cc4ccc5c(c4)OCO5)C(=O)[C@@H]3CC[C@@H]12
mid range

Next molecule: CCN(CC)c1ccc(N2CC=CC34O[C@@H]5/C=C\CCC(C)OC(=O)C5[C@H]3C(=O)N(CCCO)[C@@H]4C2=O)cc1 (stereo not given in full)
low range

Next molecule: CC(CCN1CCCCc2nc(C)c(C)cc21)=NOC(C)CN1CCCc2nc(C)c(C)cc21 (stereo not given)
high range

Next molecule: CC(C)[C@@H](OCc1ccccc1)[C@H](C)C=NO[C@H](C)c1cn([C@H](CO)Cc2ccccc2)nn1
low range

Every entry's value here was drawn from PubChem BioAssay.
